- experimental system: recombinant human NK3 receptor (Homo sapiens, UniProt P29371)
- Construct: expressed in transfected cells; host or cells: HEK293 cells, transient expression; membrane preparation
- Sequence (P29371 whole entry): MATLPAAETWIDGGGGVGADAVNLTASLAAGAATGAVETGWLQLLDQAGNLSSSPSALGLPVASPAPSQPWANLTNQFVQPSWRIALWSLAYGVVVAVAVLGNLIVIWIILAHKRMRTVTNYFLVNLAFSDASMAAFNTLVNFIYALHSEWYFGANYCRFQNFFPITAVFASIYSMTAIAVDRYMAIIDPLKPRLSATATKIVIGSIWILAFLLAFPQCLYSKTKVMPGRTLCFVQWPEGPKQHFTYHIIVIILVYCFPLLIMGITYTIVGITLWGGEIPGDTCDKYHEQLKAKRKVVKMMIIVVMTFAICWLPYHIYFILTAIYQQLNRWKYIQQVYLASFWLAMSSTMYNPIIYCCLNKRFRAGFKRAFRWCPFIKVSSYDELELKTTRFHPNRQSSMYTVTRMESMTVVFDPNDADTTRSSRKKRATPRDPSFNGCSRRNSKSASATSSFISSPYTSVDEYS
- experiment notes: [3H]SR142801 competition binding assay
- recorded conditions: [3H]SR142801, membranes of HEK293 cells transiently expressing recombinant human NK3 receptor; read-out: hNK3 Ki
quantity name: pKi
Give bare numbers, as −log10 of the molar value.

{"molecule": "CN(Cc1ccc(Cl)c(Cl)c1)C(=O)C(C)(CCN1CCC(N(C2CC2)S(C)(=O)=O)CC1)c1ccc(Cl)c(Cl)c1 (stereo not shown)", "pKi": 8.59}
{"molecule": "CC(=O)N(C)C1CCN(CCC(C)(C(=O)N[C@H](CO)c2ccc(Cl)cc2)c2ccc(Cl)c(Cl)c2)CC1 (stereo partly shown)", "pKi": 7.25}
{"molecule": "CN(Cc1ccc(F)c(C(F)(F)F)c1)C(=O)C(CCN1CCC(NS(C)(=O)=O)CC1)c1ccc(Cl)c(Cl)c1 (stereo not shown)", "pKi": 6.88}

Next, consider the following molecule.
Item CC(CCN1CCC(N2CCCC2=O)CC1)(C(=O)NC(c1ccc(C(F)(F)F)cc1)C(F)(F)F)c1ccc(Cl)c(Cl)c1 (stereo not shown) ; assay system recombinant human NK3 receptor (Homo sapiens, UniProt P29371); pKi reported as 8.09
